# System Under Test: Type-1 angiotensin II receptor (Oryctolagus cuniculus, UniProt P34976)
# Sequence (P34976 whole entry): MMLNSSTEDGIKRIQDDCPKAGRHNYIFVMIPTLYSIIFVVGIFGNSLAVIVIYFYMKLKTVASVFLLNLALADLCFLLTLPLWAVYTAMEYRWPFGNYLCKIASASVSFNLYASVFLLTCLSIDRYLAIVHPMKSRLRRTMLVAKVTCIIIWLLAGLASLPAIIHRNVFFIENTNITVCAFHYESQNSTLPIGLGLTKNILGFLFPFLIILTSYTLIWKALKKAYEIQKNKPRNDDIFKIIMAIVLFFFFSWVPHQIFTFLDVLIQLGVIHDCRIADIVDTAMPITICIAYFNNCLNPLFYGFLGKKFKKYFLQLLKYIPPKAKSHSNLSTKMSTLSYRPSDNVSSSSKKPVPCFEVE
# Assay Procedure: In vitro binding affinity evaluated by its ability to displace the specific binding ligand 125I-SAR1, Ile8-AII from Angiotensin II receptor, type 1 in rabbit aorta membrane
pIC50: −log10 of the molar value.
Value Type: pIC50

Reference set, count: 2
CCc1nc2c(C)cc(C)nn2c1Cc1ccc(-c2ccccc2S(=O)(=O)NC(=O)c2ccccc2)cc1 = 9.10
CCc1nc2c(C)cc(C)nn2c1Cc1ccc(-c2ccccc2C(=O)O)cc1 = 7.08

A: CCc1nc2c(C)cc(C)nn2c1Cc1ccc(-c2ccccc2NS(=O)(=O)C(F)(F)F)cc1
B: CCc1nc2c(C)cc(C)nn2c1Cc1ccc(-c2ccccc2-c2nn[nH]n2)cc1
Input line: pIC50 comparison. Which is larger, A or B ? Please reply using the label of the selected record.
Output line: A
(A: 8.77, B: 8.24)
